System: Surinam grass
Assay: Test B pre-/postemergence herbicide test
Assay type: in vivo, Urochloa decumbens
Details: preemergence, 125 g ai/ha; 0 to 100 scale, 0 is no effect, 100 is complete control
measurementName: Plant response rating, Surinam Grass
Form field (numeric): enter value without unit.

Form field: reported Plant response rating, Surinam Grass of `CCn1nc(C(C)(C)C)cc1C(=O)Nc1cc(C(=O)OC(C)C)c(OC)cc1F`
0

Form field: reported Plant response rating, Surinam Grass of `CCn1nc(C(C)(C)C)cc1C(=O)Nc1cccc(C(=O)OC(C)C)c1C`
0

Form field: reported Plant response rating, Surinam Grass of `CCn1nc(C(C)(C)C)cc1C(=O)Nc1nccc(OC)n1`
0
